Tested on: Vero E6 infected with SARS-CoV-2
procedure.summary: inhibition of SARS-CoV-2 cytopathic effect; higher = more antiviral protection, active = above 15
stated.conditions: 10000 nM; 48 h
outcome.measure: inhibition of SARS-CoV-2 cytopathic effect (%)
Give just the number in %; leave the unit off.

INPUT: Requested read-out inhibition of SARS-CoV-2 cytopathic effect, target or system Vero E6 infected with SARS-CoV-2, entry CCN(CC)C(=O)c1ccc(C2=CC3(CCNCC3)Oc3cccc(O)c32)cc1
OUTPUT: -2.32

INPUT: How about Fc1ccc(-n2cc(CCCCN3CCC4(CC3)OCc3ccccc34)c3ccccc32)cc1 ?
OUTPUT: 28.7

INPUT: Now give it for CCC(O)(CC(N)=O)c1ccccc1 (centres undefined) [3-hydroxy-3-phenylpentanamide] too.
OUTPUT: 0.22

INPUT: Then c1ccc(Oc2cccnc2)cc1 ?
OUTPUT: 1.23

INPUT: Same for CC#C[C@@H](CC(=O)O)c1ccc(OCc2cccc(-c3ccc(C(F)(F)F)cc3)c2)cc1
OUTPUT: 4.27

====

Catalogue of SARS-CoV-2 infection rate values
Tested on: Vero E6 infected with SARS-CoV-2
procedure.summary: SARS-CoV-2 infection rate relative to infected DMSO; higher = more infection, active = 60 or less
stated.conditions: 24 h

// known answers, use as guide
CC(C)(C)C(=O)OCOP(=O)(COCCn1cnc2c(N)ncnc21)OCOC(=O)C(C)(C)C [adefovir-dipivoxil] (10 µM)
124% (inactive)
C=C[C@]1(C)C[C@@H](OC(=O)CS[C@@H]2C[C@H]3CC[C@@H](C2)N3C)[C@]2(C)[C@H](C)CC[C@]3(CCC(=O)[C@H]32)[C@@H](C)[C@@H]1O [retapamulin] (10 µM)
109% (inactive)

Continue with the molecule presented below.
INPUT: Quick check: SARS-CoV-2 infection rate of c1cc(CN2CCCNCCNCCCNCC2)ccc1CN1CCCNCCNCCCNCC1 [plerixafor] (10 µM) ?
OUTPUT: 95.5% (inactive)

====

System: Vero E6 infected with SARS-CoV-2
procedure.summary: inhibition of SARS-CoV-2 cytopathic effect; higher = more antiviral protection, active = above 15
stated.conditions: 100 nM; 48 h
Counter-ions that a name gives are not always drawn.
outcome.measure: inhibition of SARS-CoV-2 cytopathic effect (%)
Give the value, in units of %, as a plain number.

INPUT: I would be grateful if you could share the reported inhibition of SARS-CoV-2 cytopathic effect for O=C(NNC(=O)c1ccc(CNS(=O)(=O)c2ccc(F)c(Cl)c2)cc1)c1ccccc1 .
OUTPUT: 3.13

INPUT: Cool, now c1ccc2c(c1)[I+]c1ccccc1-2 [diphenyleneiodonium]
OUTPUT: -0.64

INPUT: // next record CC1(C)S[C@@H]2[C@H](NC(=O)[C@H](N)c3ccc(O)cc3)C(=O)N2[C@H]1C(=O)O [amoxicillin]
OUTPUT: -0.76

INPUT: Item: COc1ccc(CN2C(=O)C(=O)c3cc(OC(F)(F)F)ccc32)cc1
OUTPUT: 1.79

INPUT: Queued: COc1cccc(-c2ccc(NC(=O)C3=C(C(=O)O)CCC3)c(F)c2)c1
OUTPUT: 2.16

INPUT: Then this compound: CNCCc1cnc[nH]1 [N-alpha-methylhistamine-dihydrochloride]
OUTPUT: 2.12

INPUT: How about Cc1ncc(C)n2nc([C@@H]3C[C@H]3c3nc4c5cccnc5ccn4c3C)nc12 ?
OUTPUT: 0.67
